meta.source: patent US20220112288A1

Would you mind telling me the reported gMFI of CD4+ of each entry?
biological target: T1, human CD4 on human PBMCs (human, UniProt P01730 26-458); experiment: FACS, clonal hybridoma supernatant on PBMCs
T1 construct: whole, on cells; also called hCD4
All answers are understood in gMFI, so give the number only.

State its gMFI of CD4+ for this binder: 75110_10K21A (antibody, V domains shown) VH: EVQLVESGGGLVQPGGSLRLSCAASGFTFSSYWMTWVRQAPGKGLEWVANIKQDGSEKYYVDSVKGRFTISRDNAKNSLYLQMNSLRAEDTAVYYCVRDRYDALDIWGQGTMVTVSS VL: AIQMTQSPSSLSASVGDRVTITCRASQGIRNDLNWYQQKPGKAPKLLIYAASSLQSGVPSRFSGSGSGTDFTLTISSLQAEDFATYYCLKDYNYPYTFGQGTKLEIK
119000

State its gMFI of CD4+ for this binder: 75110_09G15A (antibody, V domains shown) VH: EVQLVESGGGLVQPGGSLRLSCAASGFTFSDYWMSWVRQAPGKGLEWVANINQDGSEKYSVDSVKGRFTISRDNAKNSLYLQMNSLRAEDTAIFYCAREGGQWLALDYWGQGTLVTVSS VL: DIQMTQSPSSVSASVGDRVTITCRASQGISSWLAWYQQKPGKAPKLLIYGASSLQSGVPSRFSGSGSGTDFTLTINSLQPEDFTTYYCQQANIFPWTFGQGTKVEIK
237000

State its gMFI of CD4+ for this binder: 75110_06E14A (antibody, V domains shown) VH: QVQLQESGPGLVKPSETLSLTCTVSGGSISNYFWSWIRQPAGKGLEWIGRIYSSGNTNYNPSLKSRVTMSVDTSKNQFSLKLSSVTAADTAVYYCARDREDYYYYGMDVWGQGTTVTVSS VL: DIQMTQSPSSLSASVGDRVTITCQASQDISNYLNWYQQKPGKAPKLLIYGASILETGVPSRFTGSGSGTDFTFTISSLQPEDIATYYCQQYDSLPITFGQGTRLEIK
225000
